System: SF-268 CNS
protocol: NCI tumour cell line growth inhibition, 48 h
recordedMetric: GI50

# lineNotation, endpointResult
records = [
    ("Cc1ccc2cc3c(cc(C)c4ccccc43)c3c2c1CC3", "> 100 µM"),
    ("CC(C)OP(=O)(OC(C)C)c1ncc(-c2ccc(C(F)(F)F)cc2)c(NC2CCCCCC2)n1", "> 10 µM"),
    ("O=C1OCC(C#Cc2ccccc2)=C1Br", "4.76 µM"),
    ("CC(C)(C)C(=O)OCCNc1nc(-c2ccccc2)nc2ccccc12", "16.8 µM"),
    ("COC(=O)C1=C(C(=O)OC)SC(=C(Cl)C(=S)Oc2ccccc2N)S1", "15.9 µM"),
    ("COc1ccc(OC)c(/C=C/C(=O)N/N=C/c2ccccc2)c1", "7.56 µM"),
    ("CCn1nc(-c2ccc(C(=O)OC)cc2)nc2c(=O)n(C)c(=O)nc1-2", "1.12 µM"),
    ("Cc1ccc(-c2nc3nc(-c4ccc(Br)cc4)nc(N4CCCNCC4)c3o2)cc1", "3.63 µM"),
    ("COC(=O)[C@@]1(C)CCC[C@]2(C)[C@H]3Cc4occc4[C@H](C)[C@@H]3CC[C@@]12O", "34 µM"),
    ("CC(=O)Nc1c(Br)cc2c(c1Br)Cc1cc(Br)ccc1-2", "9.04 µM"),
    ("COc1ccc(/C=C/C(=O)c2ccc(Cl)cc2Cl)cc1", "19 µM"),
    ("ClC(Cl)c1nc(-c2ccccc2)n2nc(-c3ccccc3)cc2n1", "2.28 µM"),
    ("O=C1CCc2c(Oc3ccc4c(c3)[C@H]3[C@@H](O4)[C@@H]3c3nc4ccc(C(F)(F)F)cc4[nH]3)ccnc2N1", "2.73 µM"),
    ("NCCNC1=CC(=O)c2nc3ccccc3c3ccnc1c23", "3.63 µM"),
    ("C/C(=N\\[N+](C)(C)C)c1ccc(C)c(C)c1", "> 100 µM"),
]

* * *

Listed here: items and their measured TGI.
Tested on: SK-MEL-2 melanoma
protocol: NCI tumour cell line growth inhibition, 48 h
recordedMetric: TGI (µM)

# molecule, target, operatorSymbol, endpointResult
records = [
    ("CC1(c2ccccc2)CCN(C2CC2)CO1 (stereo not drawn)", "SK-MEL-2 melanoma", ">", 100),
    ("Clc1ccccc1CN1COc2c(cc(Cl)c3cccnc23)C1", "SK-MEL-2 melanoma", "=", 26.1),
    ("O=C1NC(N/N=C/c2cccs2)=N/C1=C\\c1ccco1", "SK-MEL-2 melanoma", "=", 62.4),
    ("CC12c3c4cccc3Oc3cc(N)cc(c31)Oc1cc(N)cc(c12)O4", "SK-MEL-2 melanoma", "=", 26.5),
    ("COc1ccc(C2=C(c3cn(C)c4ccccc34)C(=O)OC2)cc1OC", "SK-MEL-2 melanoma", ">", 100),
    ("CC[C@H](C)[C@H]1NC(=O)[C@@H](NC(=O)[C@@H](CC(C)C)N(C)C(=O)C2CCCN2C(=O)[C@H](C)O)[C@@H](C)OC(=O)[C@@H]2Cc3ccccc3CN2C(=O)[C@@H]2CCCN2C(=O)[C@H](CC(C)C)NC(=O)[C@@H](C)C(=O)[C@H](C(C)C)OC(=O)C[C@@H]1O (stereo partly drawn)", "SK-MEL-2 melanoma", "=", 1.55),
    ("CCN(CC)c1ccc2cc3ccc(=[N+](CC)CC)cc-3oc2c1", "SK-MEL-2 melanoma", "=", 2.99),
    ("Cc1cc(C)c([S@@](=O)O[C@@H]2[C@H]3OC(C)(C)O[C@H]3O[C@@H]2[C@H]2COC(C)(C)O2)c(C)c1", "SK-MEL-2 melanoma", "=", 86.1),
]
